test system: human non-small cell lung cancer NCI-H1975 cell line; assay: SRB proliferation assay, NCI-H1975 cells; format: cell-based; details: NCI-H1975, SRB, 72 h, read-out: IC50 NCI-H1975
So I've got a bunch of compounds here, and I need their pIC50 values.
Scale: pIC50 equals -log10([C]), with [C] in mol/L.

Q: Param item = C=CC(=O)Nc1cc(Nc2ncc(Cl)c(Nc3ccc4ccccc4c3)n2)c(OC)cc1N1CCOCC1 ; retrieve measured pIC50.
Result: 6.57

Q: Param item = C=CC(=O)Nc1cc(Nc2ncc(Cl)c(Nc3ccc4ccccc4c3)n2)c(OC)cc1N1CC(N(C)C)C1 ; retrieve measured pIC50.
Result: 6.79

Q: Param item = C=CC(=O)Nc1cc(CN2CCCN(C)CC2)cc(Nc2ncc(Cl)c(Nc3ccc4ccccc4c3)n2)c1 ; retrieve measured pIC50.
Result: 6.82

Q: Param item = C=CC(=O)Nc1cc(Nc2ncc(Cl)c(Nc3ccc4ccccc4c3)n2)c(OC)cc1N1CCN(C)CC1 ; retrieve measured pIC50.
Result: 7.80

Q: Param item = COc1cc(F)c(NC(=O)/C=C/CN(C)C)cc1Nc1ncc(Br)c(Nc2ccc3ccccc3c2)n1 ; retrieve measured pIC50.
Result: 6.29

Q: Param item = CN(C)C/C=C/C(=O)Nc1cccc(Nc2ncc(Cl)c(Nc3ccc4ccccc4c3)n2)c1 ; retrieve measured pIC50.
Result: 6.20

Q: Param item = COc1ccc(NC(=O)/C=C/CN2CCN(C(C)=O)CC2)cc1Nc1ncc(Cl)c(Nc2ccc3ccccc3c2)n1 ; retrieve measured pIC50.
Result: 5.98

Q: Param item = Cc1ccc(NC(=O)/C=C/CN(C)C)cc1Nc1ncc(Br)c(Nc2ccc3ccccc3c2)n1 ; retrieve measured pIC50.
Result: 6.02
